Value source: ChEMBL document CHEMBL1135117

Listed here are compounds together with their documented clearance.
test: Compound was tested for plasma clearance in rat; assay type: ADME, organism-based

input-smiles	clearance
COc1cccn(CC(=O)NCc2cc3cc(C(=O)N4CCC(N5C(=O)OCc6ccccc65)CC4)ccc3o2)c1=O	22 mL/min/kg

compound O=C(c1ccc2oc(CN3CCC[C@@H](n4cc(C(F)(F)F)ccc4=O)C3)cc2c1)N1CCC(N2C(=O)OCc3ccccc32)CC1 , clearance observed: 28 mL/min/kg

compound O=C(Cn1cc(C(F)(F)F)ccc1=O)NCc1cc2cc(C(=O)N3CCC(N4C(=O)OCc5ccccc54)CC3)c(F)cc2o1 , clearance observed: 21 mL/min/kg

compound O=C(Cn1ccc2ccccc2c1=O)NCc1cc2cc(C(=O)N3CCC(N4C(=O)OCc5ccccc54)CC3)ccc2o1 , clearance observed: 10 mL/min/kg

compound O=C(Cn1cc(C(F)(F)F)ccc1=O)NCc1cc2cc(C(=O)N3CCC(N4C(=O)OCc5ccccc54)CC3)ccc2o1 , clearance observed: 10 mL/min/kg

compound O=C(c1ccc2oc(-c3cccc(Cn4cc(C(F)(F)F)ccc4=O)n3)cc2c1)N1CCC(N2C(=O)OCc3ccccc32)CC1 , clearance observed: 12 mL/min/kg

----------
experiment: Tested for lipophilicity; type: physicochemical; settings: octanol/water
measured-property: logD
Hey, just send me the number, nothing else.

compound O=C(Cn1cc(C(F)(F)F)ccc1=O)NCc1cc2cc(C(=O)N3CCC(N4C(=O)OCc5ccccc54)CC3)cnc2o1 , logD observed: 1.85

----------
molecular target: Albumin (Homo sapiens); assay: Compound was tested for Serum albumin binding
Listed here are molecules together with their documented Binding.
All answers are understood in %, so give the number only.

// below: answered molecules
input-smiles	value-units	Binding
O=C(c1ccc2oc(CN3CCC(n4cc(C(F)(F)F)ccc4=O)CC3)cc2c1)N1CCC(N2C(=O)OCc3ccccc32)CC1	%	93
O=C(c1ccc2oc(CN3CCC[C@@H](n4cc(C(F)(F)F)ccc4=O)C3)cc2c1)N1CCC(N2C(=O)OCc3ccccc32)CC1	%	96

molecule COc1cc(OC2CCN(C(C)=O)CC2)ccc1C(=O)N1CCC(N2C(=O)OCc3ccccc32)CC1 , Binding observed: 83.7

----------
Listed here are compounds together with their documented half-life.
assay: Compound was tested for its half life in dog; assay type: ADME, organism-based, Canis lupus familiaris; conditions: in vivo
All answers are understood in h, so give the number only.

// below: answered compounds
input-smiles	half-life, h
O=C(Cn1ccccc1=O)NCc1cc2cc(C(=O)N3CCC(N4C(=O)OCc5ccccc54)CC3)ccc2o1	0.5
Cn1ncc2c(=O)n(CC(=O)NCc3cc4cc(C(=O)N5CCC(N6C(=O)OCc7ccccc76)CC5)ccc4o3)cnc21	1
O=C(Cn1cnc(C(F)(F)F)cc1=O)NCc1cc2cc(C(=O)N3CCC(N4C(=O)OCc5ccccc54)CC3)ccc2o1	1.6

compound O=C(Cn1ccc(-c2ccccc2)nc1=O)NCc1cc2cc(C(=O)N3CCC(N4C(=O)OCc5ccccc54)CC3)ccc2o1 , half-life observed: 1.3

compound COc1cccn(CC(=O)NCc2cc3cc(C(=O)N4CCC(N5C(=O)OCc6ccccc65)CC4)ccc3o2)c1=O , half-life observed: 1.1

compound O=C(Cn1ccc2ccccc2c1=O)NCc1cc2cc(C(=O)N3CCC(N4C(=O)OCc5ccccc54)CC3)ccc2o1 , half-life observed: 1.1

compound O=C(Cn1ccc(N2CCOCC2)nc1=O)NCc1cc2cc(C(=O)N3CCC(N4C(=O)OCc5ccccc54)CC3)ccc2o1 , half-life observed: 1.2

compound COc1cc(OC2CCN(C(C)=O)CC2)ccc1C(=O)N1CCC(N2C(=O)OCc3ccccc32)CC1 , half-life observed: 1.1

compound O=C(Cn1cc(C(F)(F)F)ccc1=O)NCc1cc2cc(C(=O)N3CCC(N4C(=O)OCc5ccccc54)CC3)ccc2o1 , half-life observed: 1.5

----------
assay: Compound was tested for its lipophilicity; format: physicochemical; conditions: octanol/water
measured-property: logD

compound COc1cc(OC2CCN(C(C)=O)CC2)ccc1C(=O)N1CCC(N2C(=O)OCc3ccccc32)CC1 , logD observed: 1.66

----------
biological target: Oxytocin receptor (Homo sapiens); experiment: Tested for ratio of displacement of 3H oxytocin from human OT in presence and absence of 50 mg/mL human serum albumin
Labelling: HSA shift reported below 20 becomes Satisfied; at or above becomes Not satisfied.

input-smiles	cat
O=C(Cn1cc(C(F)(F)F)ccc1=O)NCc1cc2cc(C(=O)N3CCC(N4C(=O)OCc5ccccc54)CC3)cnc2o1	Satisfied
O=C(c1ccc2oc(CN3CCCC[C@H]3Cn3cc(C(F)(F)F)ccc3=O)cc2c1)N1CCC(N2C(=O)OCc3ccccc32)CC1	Not satisfied
O=C(Cn1cc(C(F)(F)F)ccc1=O)NCc1cc2cc(C(=O)N3CCC(N4C(=O)OCc5ccccc54)CC3)ccc2o1	Not satisfied
O=C(c1ccc2oc(-c3cncc(Cn4cc(C(F)(F)F)ccc4=O)c3)cc2c1)N1CCC(N2C(=O)OCc3ccccc32)CC1	Satisfied
O=C(c1ccc2oc(CN3CCC(n4cc(C(F)(F)F)ccc4=O)CC3)cc2c1)N1CCC(N2C(=O)OCc3ccccc32)CC1	Satisfied
O=C(c1ccc2oc(-c3cccc(Cn4cc(C(F)(F)F)ccc4=O)n3)cc2c1)N1CCC(N2C(=O)OCc3ccccc32)CC1	Not satisfied

Field: below-cutoff. Rule: recorded HSA shift strictly less than 20. Subject: O=C(c1ccc2oc(CN3CCC[C@@H](n4cc(C(F)(F)F)ccc4=O)C3)cc2c1)N1CCC(N2C(=O)OCc3ccccc32)CC1 Not satisfied

----------
assay: Bioavailability in rat; assay type: ADME, organism-based; settings: in vivo
Mark Met for reported bioavailability of 40% or greater; mark Not met for anything smaller.

input-smiles	cat
COc1cccn(CC(=O)NCc2cc3cc(C(=O)N4CCC(N5C(=O)OCc6ccccc65)CC4)ccc3o2)c1=O	Not met

Evaluate O=C(Cn1cc(C(F)(F)F)ccc1=O)NCc1cc2cc(C(=O)N3CCC(N4C(=O)OCc5cccc(F)c54)CC3)ccc2o1 : bioavailability at minimum 40%? Met

Evaluate CCOc1ccn(CC(=O)NCc2cc3cc(C(=O)N4CCC(N5C(=O)OCc6ccccc65)CC4)ccc3o2)c(=O)n1 : bioavailability at minimum 40%? Not met

Evaluate O=C(Cn1cc(C(F)(F)F)ccc1=O)NCc1cc2cc(C(=O)N3CCC(N4C(=O)CCc5ccccc54)CC3)ccc2o1 : bioavailability at minimum 40%? Met

----------
test: Bioavailability in rat; assay type: ADME, organism-based; conditions: in vivo
measured-property: bioavailability (%)
All answers are understood in %, so give the number only.

// below: answered compounds
input-smiles	value-units	bioavailability
O=C(Cn1ccc2ccccc2c1=O)NCc1cc2cc(C(=O)N3CCC(N4C(=O)OCc5ccccc54)CC3)ccc2o1	%	17
O=C(Cn1cc(C(F)(F)F)ccc1=O)NCc1cc2cc(C(=O)N3CCC(N4C(=O)OCc5ccccc54)CC3)cnc2o1	%	2
O=C(Cn1cc(C(F)(F)F)ccc1=O)NCc1cc2cc(C(=O)N3CCC(N4C(=O)OCc5ccccc54)CC3)c(F)cc2o1	%	15
O=C(c1ccc2oc(-c3cccc(Cn4cc(C(F)(F)F)ccc4=O)n3)cc2c1)N1CCC(N2C(=O)OCc3ccccc32)CC1	%	22
O=C(Cn1cc(C(F)(F)F)ccc1=O)NCc1cc2cc(C(=O)N3CCC(N4C(=O)OCc5ccccc54)CC3)ccc2o1	%	16

Then there is this compound:
compound O=C(Cn1cnc(C(F)(F)F)cc1=O)NCc1cc2cc(C(=O)N3CCC(N4C(=O)OCc5ccccc54)CC3)ccc2o1 , bioavailability observed: 14

----------
molecular target: Albumin (Homo sapiens, UniProt P02768); experiment: Compound was tested for Serum albumin binding
Sequence (P02768 whole entry): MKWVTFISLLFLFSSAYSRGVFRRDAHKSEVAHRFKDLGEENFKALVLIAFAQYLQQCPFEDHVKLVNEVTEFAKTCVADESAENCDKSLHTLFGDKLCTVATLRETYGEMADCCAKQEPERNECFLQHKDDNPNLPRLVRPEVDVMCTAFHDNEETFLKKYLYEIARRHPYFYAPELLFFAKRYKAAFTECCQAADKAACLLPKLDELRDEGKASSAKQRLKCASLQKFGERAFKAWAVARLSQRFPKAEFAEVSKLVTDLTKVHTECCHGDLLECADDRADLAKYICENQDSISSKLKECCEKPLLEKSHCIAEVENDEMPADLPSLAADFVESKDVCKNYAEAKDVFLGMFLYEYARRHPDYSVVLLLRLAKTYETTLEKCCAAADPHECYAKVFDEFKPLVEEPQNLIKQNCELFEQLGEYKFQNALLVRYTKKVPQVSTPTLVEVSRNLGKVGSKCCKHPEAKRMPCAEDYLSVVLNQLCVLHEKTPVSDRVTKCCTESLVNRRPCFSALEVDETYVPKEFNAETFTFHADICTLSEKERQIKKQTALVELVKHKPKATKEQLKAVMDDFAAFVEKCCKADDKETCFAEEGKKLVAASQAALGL
measured-property: Binding (%)
All answers are understood in %, so give the number only.

input-smiles	value-units	reported-measurement
O=C(c1ccc2oc(-c3cccc(Cn4cc(C(F)(F)F)ccc4=O)n3)cc2c1)N1CCC(N2C(=O)OCc3ccccc32)CC1	%	98
O=C(c1ccc2oc(-c3cncc(Cn4cc(C(F)(F)F)ccc4=O)c3)cc2c1)N1CCC(N2C(=O)OCc3ccccc32)CC1	%	96
O=C(Cn1cc(C(F)(F)F)ccc1=O)NCc1cc2cc(C(=O)N3CCC(N4C(=O)OCc5ccccc54)CC3)cnc2o1	%	86.2
O=C(c1ccc2oc(-c3cccc(Cn4cc(C(F)(F)F)ccc4=O)c3)cc2c1)N1CCC(N2C(=O)OCc3ccccc32)CC1	%	98
O=C(c1ccc2oc(CN3CCCC[C@H]3Cn3cc(C(F)(F)F)ccc3=O)cc2c1)N1CCC(N2C(=O)OCc3ccccc32)CC1	%	98

molecule O=C(Cn1cc(C(F)(F)F)ccc1=O)NCc1cc2cc(C(=O)N3CCC(N4C(=O)OCc5ccccc54)CC3)ccc2o1 , Binding observed: 96.2

molecule O=C(c1ccc2oc(-c3cc(Cn4cc(C(F)(F)F)ccc4=O)ccn3)cc2c1)N1CCC(N2C(=O)OCc3ccccc32)CC1 , Binding observed: 96
